- system: T1, human TF ECD-His (hTF-his) (human, UniProt P13726 33-251)
- T1 construct: also called bio-hTF-his; human TF-His protein
- measurement.description: SPR Biacore T200, antibody on Protein A chip, TF-His as analyte, 1:1 model
measurement.label: koff (s⁻¹)
Please respond with the number in s⁻¹ and leave the unit unwritten.

Field koff (entry hu67-15 (antibody, human IgG1, kappa, V domains shown) VH: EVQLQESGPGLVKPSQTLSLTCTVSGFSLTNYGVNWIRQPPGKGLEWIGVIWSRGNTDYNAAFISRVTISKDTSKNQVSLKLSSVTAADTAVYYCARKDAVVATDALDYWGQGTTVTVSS VL: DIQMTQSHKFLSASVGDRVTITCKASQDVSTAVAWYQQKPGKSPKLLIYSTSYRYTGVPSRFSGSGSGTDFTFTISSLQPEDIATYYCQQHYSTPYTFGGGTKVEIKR ) reads 0.000638

These entries and their values trace back to patent EP4703388A1.
